assay: Human plasma pharmacokinetics of thiamphenicol in healthy volunteers; format: in vivo; conditions: human, plasma, po, 750 mg/day, oral 750 mg/day, Day 1, read-out: Tmax median(range)

compound | Tmax [h]
CS(=O)(=O)c1ccc([C@@H](O)[C@@H](CO)NC(=O)C(Cl)Cl)cc1 [TAP, thiamphenicol] | 2

###

assay: Human plasma pharmacokinetics of thiamphenicol in healthy volunteers; assay type: in vivo; details: human, plasma, po, 750 mg/day, oral 750 mg/day, Day 13, read-out: Tmax median(range)
test-readout: Tmax (h)

mol | test-readout | measured-number
CS(=O)(=O)c1ccc([C@@H](O)[C@@H](CO)NC(=O)C(Cl)Cl)cc1 | Tmax | 2

###

test: Human plasma pharmacokinetics of thiamphenicol in healthy volunteers; format: in vivo; details: human, plasma, po, 1500 mg/day, oral 1500 mg/day, Day 13, plasma
test-readout: Cmax (ng/mL)

compound | test-readout | measured-number
CS(=O)(=O)c1ccc([C@@H](O)[C@@H](CO)NC(=O)C(Cl)Cl)cc1 [TAP, thiamphenicol] | Cmax | 11000

###

assay: Human plasma pharmacokinetics of thiamphenicol in healthy volunteers; type: in vivo; conditions: human, plasma, po, 1500 mg/day, oral 1500 mg/day, Day 1

mol | AUC [ng·h/mL]
CS(=O)(=O)c1ccc([C@@H](O)[C@@H](CO)NC(=O)C(Cl)Cl)cc1 | 88000

###

assay: Human plasma pharmacokinetics of thiamphenicol in healthy volunteers; assay type: in vivo; conditions: human, plasma, po, 1500 mg/day, oral 1500 mg/day, Day 13
test-readout: AUC (ng·h/mL)

mol | test-readout | measured-number
CS(=O)(=O)c1ccc([C@@H](O)[C@@H](CO)NC(=O)C(Cl)Cl)cc1 | AUC | 96700

###

experiment: Human plasma pharmacokinetics of thiamphenicol in healthy volunteers; assay type: in vivo; details: human, plasma, po, 750 mg/day, oral 750 mg/day, Day 1, read-out: T ½ (converted)

mol | units-text | half-life
CS(=O)(=O)c1ccc([C@@H](O)[C@@H](CO)NC(=O)C(Cl)Cl)cc1 | h | 4.1

###

assay: Human plasma pharmacokinetics of thiamphenicol in healthy volunteers; type: in vivo; conditions: human, plasma, po, 750 mg/day, oral 750 mg/day, Day 13, read-out: T ½ (converted)

mol | half-life
CS(=O)(=O)c1ccc([C@@H](O)[C@@H](CO)NC(=O)C(Cl)Cl)cc1 | 4.8 h

###

assay: Human plasma pharmacokinetics of thiamphenicol in healthy volunteers; assay type: in vivo; details: human, plasma, po, 750 mg/day, oral 750 mg/day, Day 1, plasma
test-readout: Cmax (ng/mL)

mol | units-text | measured-number
CS(=O)(=O)c1ccc([C@@H](O)[C@@H](CO)NC(=O)C(Cl)Cl)cc1 | ng/mL | 6310
